Field: drug sensitivity score. Provide a value for each of the molecules that follow.
# Test system: FMOC25_1 (patient-derived low-grade serous ovarian cancer cells)
# Test Name: drug sensitivity score (DSS3, normalised partial AUC of % inhibition dose-response) (DSS (score)); higher = more sensitive (stronger inhibition of viability); extreme values may be limits of the assay
# Assay Context: 72 h; library: FO4B; assay format: 2D, 384-well, CellTiter-Glo

Molecule: Cc1cnc(NC(=O)Nc2cc(Br)c(C)cc2OC[C@@H]2CNCCO2)cn1 [Rabusertib]
drug sensitivity score: 1
//
Molecule: C=C1C[C@@H]2[C@H](CC[C@]3(C)C(=O)CC[C@@H]23)[C@@]2(C)C=CC(=O)C=C12 [Exemestane]
drug sensitivity score: 0

Can you give me drug sensitivity score for all of these, one by one?
1. CC(C)(C)NC(=O)[C@H]1CC[C@H]2[C@@H]3CC[C@H]4NC(=O)C=C[C@]4(C)[C@H]3CC[C@]12C [Finasteride]
2. Nc1nc(NC2CC2)cc(-c2cccc(Cl)c2Cl)n1 [TH588]

Resp:
1. 0
2. 2.1

----------
# System: FMOC22 (patient-derived mucinous ovarian cancer cells)
# Test Name: drug sensitivity score (DSS3, normalised partial AUC of % inhibition dose-response) (DSS (score)); higher = more sensitive (stronger inhibition of viability); extreme values may be limits of the assay
# Assay Context: 72 h; library: FO5A; assay format: 2D, 384-well, CellTiter-Glo
Use 3 as the dividing line for drug sensitivity score, with the line itself on the Criterion met side and lower values as Criterion not met.

Req: I'd appreciate it if you could say whether `CN1CCC(CNc2ccc3ncc(-c4cccc(OC(F)(F)F)c4)n3n2)CC1` has drug sensitivity score at least equal to 3.
Resp: Criterion met

Req: I'd appreciate it if you could say whether `CNC(=O)c1ccc2cc([C@@]3(O)CCn4cncc43)ccc2c1` has drug sensitivity score at least equal to 3.
Resp: Criterion not met

Req: I'd appreciate it if you could say whether `CCc1cnn2c(NCc3ccc[n+]([O-])c3)cc(N3CCCC[C@H]3CCO)nc12` has drug sensitivity score at least equal to 3.
Resp: Criterion met

Req: I'd appreciate it if you could say whether `COc1cc(OC)c(/C=C/S(=O)(=O)Cc2ccc(OC)c(NCC(=O)O)c2)c(OC)c1` has drug sensitivity score at least equal to 3.
Resp: Criterion met

Req: I'd appreciate it if you could say whether `N#CCNC(=O)c1ccc(-c2ccnc(Nc3ccc(N4CCOCC4)cc3)n2)cc1` has drug sensitivity score at least equal to 3.
Resp: Criterion met

Req: I'd appreciate it if you could say whether `COc1cc2c(NC3CCN(C(C)C)CC3)nc(C3CCCCC3)nc2cc1OCCCN1CCCC1` has drug sensitivity score at least equal to 3.
Resp: Criterion not met

Req: I'd appreciate it if you could say whether `CC[C@@]1(O)C(=O)OCc2c1cc1n(c2=O)Cc2cc3c(CN(C)C)c(O)ccc3nc2-1` has drug sensitivity score at least equal to 3.
Resp: Criterion met

Req: I'd appreciate it if you could say whether `CN1C(=O)N[C@H](Cc2c[nH]c3c(Cl)cccc23)C1=O` has drug sensitivity score at least equal to 3.
Resp: Criterion not met

----------
Field: drug sensitivity score. Provide a value for each of the molecules that follow.
# Tested on: FMOC22
# Test Name: drug sensitivity score (DSS3, normalised partial AUC of % inhibition dose-response) (DSS (score)); higher = more sensitive (stronger inhibition of viability); extreme values may be limits of the assay
# Assay Context: 72 h; library: FO5A; assay format: 2D, 384-well, CellTiter-Glo
One number for each entry.

Example cases with answers are listed next.
Molecule: C=CC(=O)Nc1cc(Nc2nccc(-c3cn(C)c4ccccc34)n2)c(OC)cc1N(C)CCN(C)C [Osimertinib]
Tested Target: FMOC22
drug sensitivity score: 3.3
--
Molecule: NC[C@@](O)(c1ccc(Cl)cc1)c1ccc(-c2cn[nH]c2)cc1
Tested Target: FMOC22
drug sensitivity score: 1.1
--
Molecule: CC1(C)CCC(CN2CCN(c3ccc(C(=O)NS(=O)(=O)c4ccc(NCC5CCOCC5)c([N+](=O)[O-])c4)c(Oc4cnc5[nH]ccc5c4)c3)CC2)=C(c2ccc(Cl)cc2)C1 [Venetoclax]
Tested Target: FMOC22
drug sensitivity score: 0

Req: Recorded drug sensitivity score of `CCn1c(C(=O)N(C2CC2)C2CC2)cc2c3c(ncn3C)c(Nc3cc(C)n(C)n3)nc21` , please.
Resp: 0

----------
# Tested on: FMOC04 (patient-derived high-grade serous ovarian cancer cells)
# Test Name: drug sensitivity score (DSS3, normalised partial AUC of % inhibition dose-response) (DSS (score)); higher = more sensitive (stronger inhibition of viability); extreme values may be limits of the assay
# Assay Context: 72 h; library: FO5A; assay format: 2D, 384-well, CellTiter-Glo
Measurement Label: drug sensitivity score
Give bare numbers.

Example cases with answers are listed next.
Molecule: CO[C@H]1C[C@@H]2CC[C@@H](C)[C@@](O)(O2)C(=O)C(=O)N2CCCC[C@H]2C(=O)O[C@H]([C@H](C)C[C@@H]2CC[C@@H](O)[C@H](OC)C2)CC(=O)[C@H](C)/C=C(\C)[C@@H](O)[C@@H](OC)C(=O)[C@H](C)C[C@H](C)/C=C/C=C/C=C/1C
drug sensitivity score: 1.1

Molecule: Cc1cn(-c2cc(NC(=O)c3ccc(C)c(Nc4nccc(-c5cccnc5)n4)c3)cc(C(F)(F)F)c2)cn1
drug sensitivity score: 0

Molecule: Cn1nnc2c(C(N)=O)ncn2c1=O [Temozolomide]
drug sensitivity score: 0

Molecule: NC(=O)NO [Hydroxyurea]
drug sensitivity score: 0.8

Molecule: Cc1cnc(-c2ccccc2C(C)C)nc1NCc1ccc(-n2ccnn2)cc1
drug sensitivity score: 0

Molecule: N#Cc1ccc(C(c2ccc(C#N)cc2)n2cncn2)cc1
drug sensitivity score: 0

Molecule: O=C(CCCCCCC(=O)Nc1ccc([C@H]2O[C@@H](CSc3nc(-c4ccccc4)c(-c4ccccc4)o3)C[C@@H](c3ccc(CO)cc3)O2)cc1)NO
drug sensitivity score: 0

Turning now to a further record.
Req: Which measured drug sensitivity score belongs to `c1cc(CN2CCCNCCNCCCNCC2)ccc1CN1CCCNCCNCCCNCC1` , tested on FMOC04?
Resp: 0

----------
# System: FMOC06 (patient-derived mucinous ovarian cancer cells)
# Test Name: drug sensitivity score (DSS3, normalised partial AUC of % inhibition dose-response) (DSS (score)); higher = more sensitive (stronger inhibition of viability); extreme values may be limits of the assay
# Assay Context: 72 h; library: FO5A; assay format: 2D, 384-well, CellTiter-Glo
Measurement Label: drug sensitivity score
One number for each entry.

Example cases with answers are listed next.
Molecule: C=CC(=O)Nc1cc2c(Nc3ccc(F)c(Cl)c3)ncnc2cc1OCCCN1CCOCC1
Quantitative Readout: 9

Molecule: CC(C)N(C[C@H]1O[C@@H](n2cnc3c(N)ncnc32)[C@H](O)[C@@H]1O)[C@H]1C[C@@H](CCc2nc3cc(C(C)(C)C)ccc3[nH]2)C1
Quantitative Readout: 0

Molecule: CN1CCN(c2ccc3nc(-c4c(N)c5c(F)cccc5[nH]c4=O)[nH]c3c2)CC1
Quantitative Readout: 0

Molecule: O=C(NC1CCNCC1)c1n[nH]cc1NC(=O)c1c(Cl)cccc1Cl
Quantitative Readout: 16.3

Molecule: N#CC(c1ccnc(OCc2ccc(CN3CCOCC3)cc2)n1)c1nc2ccccc2s1 (configuration not stated)
Quantitative Readout: 2

Can you give me drug sensitivity score for all of these, one by one?
1. CC(C)NC(=O)COc1cccc(-c2nc(Nc3ccc4[nH]ncc4c3)c3ccccc3n2)c1
2. CC[C@]1(O)C[C@H]2CN(CCc3c([nH]c4ccccc34)[C@@](C(=O)OC)(c3cc4c(cc3OC)N(C=O)[C@H]3[C@@](O)(C(=O)OC)[C@H](OC(C)=O)[C@]5(CC)C=CCN6CC[C@]43[C@@H]65)C2)C1

Resp:
[1.1, 3.4]

----------
# Tested on: FMOC11 (patient-derived high-grade serous ovarian cancer cells)
# Test Name: drug sensitivity score (DSS3, normalised partial AUC of % inhibition dose-response) (DSS (score)); higher = more sensitive (stronger inhibition of viability); extreme values may be limits of the assay
# Assay Context: 72 h; library: FO5A; assay format: 2D, 384-well, CellTiter-Glo
Field: drug sensitivity score. Provide a value for each of the molecules that follow.
Numbers only.

Example cases with answers are listed next.
Molecule: Cc1ccc(=O)n(-c2ccccc2)c1
Tested Target: FMOC11
drug sensitivity score: 0.1
//
Molecule: CC1(C)C(C(=O)Nc2ccc(S(=O)(=O)c3ccc(NC(=O)C4C(C)(C)C4(C)C)cc3)cc2)C1(C)C
Tested Target: FMOC11
drug sensitivity score: 2.2
//
Molecule: CN(c1ncccc1CNc1nc(Nc2ccc3c(c2)CC(=O)N3)ncc1C(F)(F)F)S(C)(=O)=O
Tested Target: FMOC11
drug sensitivity score: 4.9

Can you give me drug sensitivity score for all of these, one by one?
1. O=C(O)c1ccc(CN2CCC(CN[C@@H]3C[C@H]3c3ccccc3)CC2)cc1
2. O=C(Nc1cccnc1)N1CCC(Cc2cccc(Oc3ccc(C(F)(F)F)cn3)c2)CC1
3. CCN1CCN(c2ccc(Nc3cc(N(C)C(=O)Nc4c(Cl)c(OC)cc(OC)c4Cl)ncn3)cc2)CC1
4. O=C(Nc1nc2cccc(-c3ccc(CN4CCS(=O)(=O)CC4)cc3)n2n1)C1CC1

Resp:
0
0
0
0

These entries and their values trace back to the supplement of paper PMC9938120.
